- test.details: Toxicity liver stage against HepG2, at 10uM
- Type: cell-based
- Parameters: test concentration 10 uM, cell line HepG2-A16-CD81EGFP
- condition.context: human, HepG2-A16-CD81EGFP cells; read-out: INHIBITION
measurement.type: cytotoxicity at 10 µM (%)
One number for each entry, in %.

Check out these entries, answers already filled in.
| compound | display.unit | cytotoxicity at 10 µM |
| --- | --- | --- |
| CC(c1cccc(O)c1)N(C)S(=O)(=O)c1cccnc1 (centres undefined) | % | 9.46 |
| Cc1cccc(-c2nccnc2C2CCCN(C)C2)c1C (centres undefined) | % | 5.62 |
| COCC(Nc1nc(N(C)C)nc2c1CCNCC2)c1ccccn1 (centres undefined) | % | 1.58 |
| CCCn1nc2c(cc1=O)CN(CC(=O)Nc1ccncc1)CC2 | % | -17.8 |
| O=C(CNc1nc(C2CC2)ns1)N1CCc2sccc2C1 | % | 17.3 |

I need cytotoxicity at 10 µM for every entry listed below, if you could help.
1. CC[C@@H](c1ccccc1)n1c(CCN)n[nH]c1=O
2. COCc1cncc2c1CCN(Cc1ccccn1)C2
3. Cc1n[nH]c(C2CN(Cc3csc(C4CC4)n3)CCO2)n1 (centres undefined)
4. CCCC(C)(C)NC(=O)c1ccc(CC2CC(=O)NC2=O)cc1 (centres undefined)
5. Cc1ncc(CN2CCCC(c3cc(C(F)(F)F)[nH]n3)C2)s1 (centres undefined)

RESULT:
1. 5.33
2. -10.2
3. -0.18
4. -19.7
5. -17.8

I need cytotoxicity at 10 µM for every entry listed below, if you could help.
1. CCN(CC)C(=O)c1ccc(CNc2ncc(C#N)cc2Cl)cc1
2. O=C1CC(C(=O)O)C2(CCN(C(=O)Nc3ccccc3Cl)CC2)N1 (centres undefined)
3. Cc1cnn(CC2CCCN2Cc2nnc(C(C)C)o2)c1 (centres undefined)
4. CCC[C@H]1CN(C2CCOCC2)C[C@@H]1NC(=O)CCCn1ccnc1

RESULT:
1: 5.87; 2: 2.14; 3: -20.3; 4: 8.06

I need cytotoxicity at 10 µM for every entry listed below, if you could help.
1. c1ccc(CCCN2CC[C@H](c3nnc(-c4ccccc4)o3)C2)cc1
2. Cc1noc(C(C)N2CCN(Cc3ccco3)CC2)n1 (centres undefined)
3. CC(C1CC1)n1nccc1NC(=O)CN(C)C(=O)OC(C)(C)C (centres undefined)
4. COCC1CC2(CCN(Cc3nccn3C)CC2)CN1c1ncccn1 (centres undefined)
5. O=C(C1=CCCC1)N1C[C@@H]2COC[C@]2(COCc2ccncc2)C1
6. c1cncc(CN2CCC(c3ccnc4nccn34)C2)c1 (centres undefined)

RESULT:
1: 4.77; 2: -3.37; 3: 0.258; 4: 5.1; 5: -96.4; 6: 5.78
